Target: T1, human CAPRIN-1 on the cell membrane surface of human cancer cells (human, UniProt Q14444 2-709)
T1 construct: whole, on cells
T1 sequence (looked up): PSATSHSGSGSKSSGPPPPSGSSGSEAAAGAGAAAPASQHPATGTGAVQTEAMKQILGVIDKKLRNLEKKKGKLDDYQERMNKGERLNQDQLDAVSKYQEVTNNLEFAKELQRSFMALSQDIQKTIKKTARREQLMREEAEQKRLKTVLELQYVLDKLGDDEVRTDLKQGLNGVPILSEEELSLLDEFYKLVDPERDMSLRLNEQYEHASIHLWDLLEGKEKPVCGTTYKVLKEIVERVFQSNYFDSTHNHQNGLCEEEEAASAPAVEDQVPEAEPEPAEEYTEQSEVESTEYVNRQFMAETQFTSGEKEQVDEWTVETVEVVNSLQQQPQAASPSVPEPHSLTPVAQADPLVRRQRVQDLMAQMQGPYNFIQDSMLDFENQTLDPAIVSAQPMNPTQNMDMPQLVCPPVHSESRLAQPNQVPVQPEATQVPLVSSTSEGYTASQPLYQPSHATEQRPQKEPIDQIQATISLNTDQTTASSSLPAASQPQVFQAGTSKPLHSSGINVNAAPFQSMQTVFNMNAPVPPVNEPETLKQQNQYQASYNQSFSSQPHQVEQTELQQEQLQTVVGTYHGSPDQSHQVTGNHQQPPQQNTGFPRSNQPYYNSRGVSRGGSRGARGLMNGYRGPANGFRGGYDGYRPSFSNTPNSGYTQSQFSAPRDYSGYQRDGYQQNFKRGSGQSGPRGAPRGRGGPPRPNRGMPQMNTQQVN
Test: flow cytometry, BT474 cells
MEASUREMENT NAME: binding result

BINDER	binding result
Conjugate 47 (antibody, human IgG1, V domains shown, human IgG1 constant regions; also called conjugate with MMAE using humanized antibody #41) VH: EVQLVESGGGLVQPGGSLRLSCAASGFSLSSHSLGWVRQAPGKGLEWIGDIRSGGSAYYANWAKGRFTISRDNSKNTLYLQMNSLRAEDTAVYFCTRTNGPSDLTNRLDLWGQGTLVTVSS VL: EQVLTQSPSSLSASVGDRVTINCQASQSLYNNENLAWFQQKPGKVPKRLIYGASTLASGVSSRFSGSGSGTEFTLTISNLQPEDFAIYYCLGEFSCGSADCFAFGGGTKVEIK	binds
Conjugate 123 (antibody, V domains shown, human IgG1 constant regions; also called conjugate with MMAE using humanized antibody #37) VH: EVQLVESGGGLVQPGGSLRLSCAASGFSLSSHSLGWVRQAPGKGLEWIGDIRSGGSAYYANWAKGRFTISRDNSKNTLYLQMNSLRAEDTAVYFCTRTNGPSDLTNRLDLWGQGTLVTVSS VL: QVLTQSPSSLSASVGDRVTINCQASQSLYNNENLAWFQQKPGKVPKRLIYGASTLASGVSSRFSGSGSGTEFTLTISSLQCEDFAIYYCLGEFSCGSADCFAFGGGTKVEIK	binds
Conjugate 125 (antibody, V domains shown, human IgG1 constant regions; also called conjugate with MMAE using humanized antibody #39) VH: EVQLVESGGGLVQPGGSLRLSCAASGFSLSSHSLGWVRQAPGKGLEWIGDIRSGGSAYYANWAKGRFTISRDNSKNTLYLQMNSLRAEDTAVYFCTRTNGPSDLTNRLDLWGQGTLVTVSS VL: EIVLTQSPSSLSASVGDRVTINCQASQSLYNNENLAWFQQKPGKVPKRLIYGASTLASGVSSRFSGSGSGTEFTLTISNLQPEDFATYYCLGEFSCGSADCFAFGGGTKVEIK	binds
Conjugate 100 (antibody, V domains shown, human IgG1 constant regions; also called conjugate with MMAE using humanized antibody #14) VH: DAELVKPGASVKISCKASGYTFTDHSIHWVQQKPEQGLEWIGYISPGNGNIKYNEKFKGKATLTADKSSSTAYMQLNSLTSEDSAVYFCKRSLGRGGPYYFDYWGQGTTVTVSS VL: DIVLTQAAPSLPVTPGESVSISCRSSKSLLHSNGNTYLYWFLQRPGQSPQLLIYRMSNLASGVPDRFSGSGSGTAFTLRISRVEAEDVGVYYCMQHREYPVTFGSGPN	binds

**Query** # query: binding result of entry Conjugate 15 (antibody, human IgG1, V domains shown, human IgG1 constant regions; also called conjugate with MMAE using humanized antibody #9) VH: AVTLDESGGGLQTPGGALSLVCKASGFTFSGYDMLWVRQAPGKGLEWVAGIGSTGGGTDYGAAVKGRATISRDNGQSTVRLQLNNLRAEDTATYYCAKVAGGCNSGYCRDSPGSIDAWGHGTEVIVS VL: AVTQQPASVSANPGETVKITCSGGGSRNYYGWYQQKSPGSVPVTVIYYDDQRPSNIPSRFSGALSGSTSTLTITGVQADDEAVYFCGSADSNTYEGSFGAGTTLTVL
**Result** binds

**Query** Endpoint output: binding result of Conjugate 45 (antibody, human IgG1, V domains shown, human IgG1 constant regions; also called conjugate with MMAE using humanized antibody #39) VH: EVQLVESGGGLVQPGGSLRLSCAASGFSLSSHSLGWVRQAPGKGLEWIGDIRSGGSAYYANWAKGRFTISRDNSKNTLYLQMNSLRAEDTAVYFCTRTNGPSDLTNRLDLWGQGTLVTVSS VL: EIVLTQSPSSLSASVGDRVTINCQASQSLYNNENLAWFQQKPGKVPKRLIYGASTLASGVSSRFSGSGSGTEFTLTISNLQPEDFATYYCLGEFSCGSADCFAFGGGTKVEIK . Value?
**Result** binds

**Query** Reported binding result for Conjugate 126 (antibody, V domains shown, human IgG1 constant regions; also called conjugate with MMAE using humanized antibody #40) VH: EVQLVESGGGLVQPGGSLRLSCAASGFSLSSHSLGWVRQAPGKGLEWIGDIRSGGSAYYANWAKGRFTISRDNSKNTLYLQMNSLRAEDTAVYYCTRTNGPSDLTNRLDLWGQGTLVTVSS VL: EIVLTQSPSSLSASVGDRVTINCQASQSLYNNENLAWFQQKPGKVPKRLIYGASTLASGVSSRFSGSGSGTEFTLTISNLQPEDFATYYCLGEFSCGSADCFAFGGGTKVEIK : what is it?
**Result** binds

Taken from patent US20250281630A1.
